protocol details: inhibition of 3D7 malaria parasite growth – strain 3D7 (AID 2306);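 also: 0% = DMSO wells and 100% = chloroquine plus artemisinin control wells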
details: P. falciparum 3D7 erythrocytic growth, LDH absorbance, 72 h; at 2 µM; hits give high values
reported property: growth inhibition (%)
# unit: % | format: bare number

*Q* Give the reported value of growth inhibition for this record: "Cc1cc(-c2ccc(CNCc3ccc(F)cc3)cc2)ccc1S(=O)(=O)NCCN1CCCC1"
*A* 100

*Q* Give the reported value of growth inhibition for this record: "O=C(/C=C/c1ccc(Cl)c(Cl)c1)NCCCCCN1CCCN(C(=O)Nc2cccc(C(F)(F)F)c2)CC1"
*A* 96

*Q* Give the reported value of growth inhibition for this record: "C[C@@H]1CN(c2ccc3occ(C(=O)Nc4ccc(-c5ccncc5)c(Cl)c4)c3c2)C[C@H](C)N1C"
*A* 100

*Q* Give the reported value of growth inhibition for this record: Cc1ccc(CN2CCCCC(NC(=O)c3cc4ccccc4s3)C2)cc1 (stereo unspecified)
*A* 94
